Experiment: Inhibition of chitotriosidase after 60 mins
pIC50: −log10 of the molar value.
endpoint-label: pIC50

INSERT INTO results (smiles_repr, relation_operator, value_measured) VALUES
  ('Nc1n[nH]c(N2CCN(CCOc3ccc(Br)cc3)CC2)n1', '=', 5.37),
  ('NC(=O)c1cccnc1N1CCNCC1', '=', 4.05),
  ('Cc1[nH]c2ccccc2c1CN1CCN(c2ccccn2)CC1', '=', 5.87),
  ('N=C(N)N1CCN(c2ccc(Cl)cc2)CC1', '<', 4.00);

Provenance of the data: ChEMBL document CHEMBL1212885
